Entries with reported Ki on Glutamate receptor 3 (Rattus norvegicus, UniProt P19492)
Sequence (P19492 whole entry): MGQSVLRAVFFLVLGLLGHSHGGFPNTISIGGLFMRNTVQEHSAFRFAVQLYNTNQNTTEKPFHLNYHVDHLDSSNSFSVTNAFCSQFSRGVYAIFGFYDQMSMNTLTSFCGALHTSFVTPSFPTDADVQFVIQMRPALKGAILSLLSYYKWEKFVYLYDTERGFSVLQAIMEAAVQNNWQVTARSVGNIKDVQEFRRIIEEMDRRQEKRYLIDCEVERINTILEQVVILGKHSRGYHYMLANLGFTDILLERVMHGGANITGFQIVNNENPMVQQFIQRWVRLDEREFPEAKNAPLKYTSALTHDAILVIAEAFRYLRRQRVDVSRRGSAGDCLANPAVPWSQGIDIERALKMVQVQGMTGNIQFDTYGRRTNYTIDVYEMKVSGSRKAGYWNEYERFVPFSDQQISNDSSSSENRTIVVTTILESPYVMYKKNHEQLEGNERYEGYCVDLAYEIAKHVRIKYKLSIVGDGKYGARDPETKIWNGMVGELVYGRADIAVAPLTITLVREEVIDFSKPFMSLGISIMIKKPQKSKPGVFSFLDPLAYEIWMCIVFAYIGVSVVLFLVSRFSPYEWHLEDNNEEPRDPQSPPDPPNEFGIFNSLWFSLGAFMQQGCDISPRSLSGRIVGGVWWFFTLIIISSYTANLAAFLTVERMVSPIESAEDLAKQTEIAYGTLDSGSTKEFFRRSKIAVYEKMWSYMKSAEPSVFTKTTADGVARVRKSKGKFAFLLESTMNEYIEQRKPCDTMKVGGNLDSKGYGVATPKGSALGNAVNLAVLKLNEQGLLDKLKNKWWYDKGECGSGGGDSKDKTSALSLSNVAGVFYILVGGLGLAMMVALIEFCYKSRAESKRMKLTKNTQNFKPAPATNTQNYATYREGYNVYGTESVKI
Reported Property: Ki (µM)

1) N[C@@H](Cc1conc1C(=O)O)C(=O)O [(R)-Demethyl-ACPA]
9.4
2) Cc1onc(C(=O)O)c1C[C@H](N)C(=O)O
0.025
3) Cc1onc(C(=O)O)c1CC(N)C(=O)O (stereo not drawn)
0.02

* * *

Target: Glutamate receptor ionotropic, NMDA 1 (Rattus norvegicus, UniProt P35439)
pKi: −log10 of the molar value.
The reader will find reported pKi values listed item by item below.
Reported Property: pKi

1) Cc1onc(C(=O)O)c1CC(N)C(=O)O (stereo not drawn)
< 5.00
2) Cc1onc(C(=O)O)c1C[C@@H](N)C(=O)O [(R)-ACPA]
< 5.00
3) N[C@@H](Cc1conc1C(=O)O)C(=O)O [(R)-Demethyl-ACPA]
5.35
